tgt: Tyrosine-protein kinase receptor TYRO3 (Homo sapiens) (UniProt Q06418)
Sequence (Q06418 whole entry): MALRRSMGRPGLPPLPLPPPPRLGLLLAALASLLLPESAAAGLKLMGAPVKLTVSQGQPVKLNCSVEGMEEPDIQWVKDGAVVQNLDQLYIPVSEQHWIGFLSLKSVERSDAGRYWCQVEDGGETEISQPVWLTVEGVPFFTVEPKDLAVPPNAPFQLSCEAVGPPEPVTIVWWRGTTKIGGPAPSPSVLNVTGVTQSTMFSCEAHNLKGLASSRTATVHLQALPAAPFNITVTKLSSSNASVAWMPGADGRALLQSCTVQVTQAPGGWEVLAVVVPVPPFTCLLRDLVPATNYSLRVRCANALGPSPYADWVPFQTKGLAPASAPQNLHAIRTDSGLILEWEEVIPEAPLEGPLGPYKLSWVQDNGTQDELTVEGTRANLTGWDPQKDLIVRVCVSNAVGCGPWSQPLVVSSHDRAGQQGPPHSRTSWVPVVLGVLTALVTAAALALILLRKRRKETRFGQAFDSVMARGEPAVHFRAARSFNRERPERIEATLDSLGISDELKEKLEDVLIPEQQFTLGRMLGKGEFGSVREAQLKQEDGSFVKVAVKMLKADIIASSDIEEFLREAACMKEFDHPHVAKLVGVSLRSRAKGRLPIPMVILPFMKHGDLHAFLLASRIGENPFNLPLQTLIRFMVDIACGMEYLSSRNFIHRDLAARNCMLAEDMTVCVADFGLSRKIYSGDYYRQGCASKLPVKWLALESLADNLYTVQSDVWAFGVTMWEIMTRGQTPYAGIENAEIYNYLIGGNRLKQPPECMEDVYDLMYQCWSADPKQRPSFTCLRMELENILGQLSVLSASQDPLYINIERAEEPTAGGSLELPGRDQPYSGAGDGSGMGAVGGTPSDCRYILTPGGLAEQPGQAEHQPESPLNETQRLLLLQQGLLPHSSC
condition.description: at 1 µM
Description: GSK_PKIS: TYRO3 mean inhibition at 1 uM [Nanosyn]
reported.property: inhibition (%)

[
  {
    "smiles.notation": "O=C1Nc2ccccc2/C1=C1\\CCc2cc(O)ccc21",
    "readout.unit": "%",
    "measured.value": 18.8
  },
  {
    "smiles.notation": "Cc1nnc(-c2cccc(-c3ccc(C(=O)NCC4CC4)cc3)c2)o1",
    "readout.unit": "%",
    "measured.value": 4.17
  },
  {
    "smiles.notation": "COC(=O)Nc1nc2cc(Oc3ccc(NC(=O)Nc4ccccc4)cc3)ccc2[nH]1",
    "readout.unit": "%",
    "measured.value": 4.81
  },
  {
    "smiles.notation": "O=C(Nc1n[nH]c2nnc(-c3cccnc3)cc12)C1CC1",
    "readout.unit": "%",
    "measured.value": 1.65
  },
  {
    "smiles.notation": "COc1ccccc1-c1cc(/C=C2\\C(=O)Nc3ncc(Br)cc32)cc(Br)c1O",
    "readout.unit": "%",
    "measured.value": 3.41
  },
  {
    "smiles.notation": "NS(=O)(=O)c1ccc(N/N=C2\\C(=O)Nc3ccc(C(=O)NCc4ccncc4)cc32)cc1",
    "readout.unit": "%",
    "measured.value": 8.28
  },
  {
    "smiles.notation": "CS(=O)(=O)CCNCc1ccc(-c2ccc3ncnc(Nc4ccc(OCc5cccc(C(F)(F)F)c5)cc4)c3c2)o1",
    "readout.unit": "%",
    "measured.value": 0.73
  },
  {
    "smiles.notation": "CS(=O)(=O)CCNCc1ccoc1-c1ccc2ncnc(Nc3ccc(OCc4ccccc4)cc3)c2c1",
    "readout.unit": "%",
    "measured.value": 3.68
  },
  {
    "smiles.notation": "Cn1c(-c2nonc2N)nc2cnccc21",
    "readout.unit": "%",
    "measured.value": 0.09
  },
  {
    "smiles.notation": "CS(=O)(=O)Nc1ccc(-c2cc(-c3ccccc3)cc(C(N)=O)c2N)cc1",
    "readout.unit": "%",
    "measured.value": 0.42
  },
  {
    "smiles.notation": "O=C(O[C@H]1CN[C@H](C#Cc2cc3ncnc(Nc4ccc5c(cnn5Cc5ccccc5)c4)c3s2)C1)N1CCOCC1",
    "readout.unit": "%",
    "measured.value": 1.4
  },
  {
    "smiles.notation": "FC(F)(F)CNc1nccc(-c2cnn3ncccc23)n1",
    "readout.unit": "%",
    "measured.value": 2.17
  }
]
